test system: HCI-015 (organoid from a triple-negative breast cancer xenograft); test: CTG-3D luminescence at 96 h relative to day-0 seeding control (ratio to day 0); higher = more growth / less cytotoxicity; PDxO 3D drug screen (set 2), 96 h, CTG-3D normalised to day-0 seeding control.; conditions: 10 µM; days in culture: 369
# key: entry, value: CTG-3D luminescence at 96 h
// print number alone

Known CTG-3D luminescence at 96 h results, listed for orientation:
smilesStructure: CCOc1ccn(-c2ccc(F)cc2)c(=O)c1C(=O)Nc1ccc(Oc2ccnc(N)c2Cl)c(F)c1
CTG-3D luminescence at 96 h: 1.38
//
smilesStructure: Cc1c(CN2CCN(C(=O)[C@H](C)O)CC2)sc2c(N3CCOCC3)nc(-c3cnc(N)nc3)nc12
CTG-3D luminescence at 96 h: 0.622
//
smilesStructure: CO[C@H]1C[C@@H]2CC[C@@H](C)[C@@](O)(O2)C(=O)C(=O)N2CCCC[C@H]2C(=O)O[C@H]([C@H](C)C[C@@H]2CC[C@@H](O)[C@H](OC)C2)CC(=O)[C@H](C)/C=C(\C)[C@@H](O)[C@@H](OC)C(=O)[C@H](C)C[C@H](C)/C=C/C=C/C=C/1C
CTG-3D luminescence at 96 h: 0.955

Please look at the following compound next.
Qu. Annotate the compound Nc1cc(C(F)(F)F)c(-c2cc(N3CCOCC3)nc(N3CCOCC3)n2)cn1 with its measured CTG-3D luminescence at 96 h.
Ans. 0.378
